// provenance: the supplement of paper PMC6555819

# Tested on: LXRa:RXRa (NR concentration 270 nM, RXRa partner concentration 90 nM)
# Protocol Description: PBM binding z-score (relative to random genomic background probes); higher = stronger binding; sequences stand for … in GC…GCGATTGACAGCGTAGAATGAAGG
Measure Name: PBM binding z-score
Give bare numbers.

Sequence String	PBM binding z-score
AGAATGAAGTTATTAAGATCAGGGAATTGCGGTC	-0.535
CCTAGCAGACCAGGGTCACTCAAGCATTTCGCTT	1.88
TCTAGTAGTTGAAGGGCAACCGACGAGTCCGTTT	0.618
CCTCGGAGGAAAGAAGGTCAGAGCTGTCCGCTTT	1.38
ATCTCTAGGTCACAAGTTCAGTGAAAGAGAGGAC	4.68
GCTTACGGGTCAAACGTTATAGCATGAATAGAAT	4.13

Your task in this section: give PBM binding z-score for each listed record.
1. TCGAGTAGGTGAGTCGGGGCATTCAGCCAACATA
2. TAGCCTAGGTCAGATCGGTCCAGTATACGCTATA
3. ATATGTAGGTTAGCTGTGGTCATTCAGACTAGGC
4. CCTTACGGGTCACGAGGTTATAGTACGACGAGCG
5. CCAGACAGTTGAGAAGGTAACTCAGCCTCGATTA
6. AACTCTAGGTAAAAGTTCAGTGAATCCCGAGGAT
7. ATCTCTAAGTAAAGTTCAGTGAAAGATCGATAGA
8. CCTACTGGGCCATCAGGCCATTGATATCAACGTT

1: -0.132; 2: 0.953; 3: 1.93; 4: 4.81; 5: 0.172; 6: 1.42; 7: 1.99; 8: -0.192

###

# System: RARg homodimer (NR concentration 270 nM)
# Protocol Description: PBM binding z-score (relative to random genomic background probes); higher = stronger binding; sequences stand for … in GC…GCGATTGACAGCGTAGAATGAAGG
Label Met when PBM binding z-score is at or above 3; otherwise label Not met.

Please check the record ACAGACATGTGAGTGAAGGTAACTCAGCTGGACG and state if its PBM binding z-score is at or above 3.
Not met

Entry TAGCGTAGGTCAGATCGGGCCAGTATACGCTATA : is its PBM binding z-score no less than 3?
Met

Textbook exercise: given the entry TCTAGCAGGCCAGATGGTCACTCAAGAGGTACGG , state whether its PBM binding z-score is greater than or equal to 3.
Not met

In plain terms: is recorded PBM binding z-score at least 3 for GCTATTAGTTGAAAGGGCAACCAAATGATTCTCG ?
Not met

###

# System: VDR:RXRa (NR concentration 270 nM, RXRa partner concentration 90 nM)
# Protocol Description: PBM binding z-score (relative to random genomic background probes); higher = stronger binding; sequences stand for … in GC…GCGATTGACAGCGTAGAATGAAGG
Measure Name: PBM binding z-score

Sequence String	PBM binding z-score
CCGACCGGGGCAAGGTTACCATAACGCACAGCCA	0.334
ACCGACAGGTGATGAAGGTAACTCAGGCTATCAT	-0.148
TCTTGTAGATCAACAGGAGGTTAAAAAAGATCGA	0.744

Provide the reported PBM binding z-score of each entry below, same order.
1. GCTTACGGGTCAAAGTTTATAGCATGAATAGAAT
2. TCGAGTAGGTTAGGGGCATTCAGAATGGCGTCGA
3. ATACCAAGGTGTTCGTGAGGTCGTTGATACTAAC

4.3
0.508
2.81

Go through the items and report each one's PBM binding z-score.
1. GGAACGAGGGCAAGTGGATAGCAGAGTTTGATGG
2. AGAATGAGGTTACCAAAGCTCAGGGAAACGCTTG

1. 0.391
2. 0.99

Quick one: give me PBM binding z-score for each item below, same order please.
1. AGAATGAGGTTATTTAGATCAGGGAATTGCGGTC
2. TCTAGTAGGTTACCAATGGGGCATTCAGCTTTCT
3. CCTACTGGGCCAAGGTCCTTGATCAGTCAAAGCA
4. CCGAGTGGGGCAAAGGTTACCATACTCAGTACGA

1: 1.88; 2: 0.81; 3: -0.657; 4: 1.49

###

# Tested on: PPARg homodimer (NR concentration 180 nM)
# Protocol Description: PBM binding z-score (relative to random genomic background probes); higher = stronger binding; sequences stand for … in GC…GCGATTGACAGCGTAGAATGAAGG
Assign PBM binding z-score to each entry below.
One number for each entry.

# annotated cases, reported PBM binding z-score shown
Sequence String	PBM binding z-score
ATCGAAAGGTCGATGTGAGTATAGAGAAAGGGAA	0.753
ACTACCAGGCCAAGTTTGGGTCACTCAAACAAAG	0.797
CTACCCAGGTGAACAAGGTCGTTGATTACTATTC	0.541
TCAGACAGGTGAAGGTAACTCATGTACGCAGTCG	0.397
GCGACTGGGACAAAGCAGGTTACCATAAGGTTGG	0.0292

Query sequence follows.
If you can, please state the reported PBM binding z-score value of AGAACGAGGGCACGCTGAGTTGATAGCAGAGTAG .
0.297

###

# Test system: THRa homodimer (NR concentration 90 nM)
# Protocol Description: PBM binding z-score (relative to random genomic background probes); higher = stronger binding; sequences stand for … in GC…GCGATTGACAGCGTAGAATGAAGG
Measure Name: PBM binding z-score

State recorded PBM binding z-score for all listed sequences.
1. TCTAGTTGGTCAAGGAGGTCACACACGACGGGTA
2. GATACAGGGTCAAGGCAAGAGTACGCGTATTGAT
3. CCGACTGGGGCATAAGGTCACCATAAGCCAGCCC

2.15
1.16
4.71

Value sought for every listed sequence: PBM binding z-score.
1. CAAACTAGGGCAAAGGTCAAAGTCGAGCCAACCA
2. CTCGAAAGGTCGGTTGAGGTGCGTATACGGATAA

[0.591, -0.208]

###

# Test system: RXRa homodimer (NR concentration 180 nM)
# Protocol Description: PBM binding z-score (relative to random genomic background probes); higher = stronger binding; sequences stand for … in GC…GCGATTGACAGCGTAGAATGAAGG
Measure Name: PBM binding z-score
Give bare numbers.

Sequence String	Measure Name	Reported Measurement
ATATGTAGGTTAAGGGTCATCCAGGTTGGTTCGC	PBM binding z-score	6.92

Hi, could you look up PBM binding z-score for each item in my list?
1. CAAACTAGGTCAAGAGGTCAATGTCCGCTTCCCG
2. ATATGTAGGTTAGCTGGGGTCAATCAGACTAGGC
3. TCTTTTAGATCAAAGGTTAAGAAAGCCGAAGCCT
4. TCACACAGGTGAAGGTAACTCAGGTACGCAGTCG
5. CGTCCAAGGTCAAGGCCAGTGAAAGAGACTCGAA

1. 7.85
2. 5.42
3. 2.81
4. 1.18
5. 5.24

###

# Test system: RARb homodimer (NR concentration 270 nM)
# Protocol Description: PBM binding z-score (relative to random genomic background probes); higher = stronger binding; sequences stand for … in GC…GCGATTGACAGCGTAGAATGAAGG
Measure Name: PBM binding z-score
One number for each entry.

Past entries and their recorded results:
Sequence String	Tested On	PBM binding z-score
CAAACTAGGTCAAGGTCAAACTCGGTTTGTGCCA	RARb homodimer (NR concentration 270 nM)	5.07
TAGCCTAGGGCATGCGGGCCAGTATAGTGTCGGC	RARb homodimer (NR concentration 270 nM)	0.409
CCTTACGAGTCACTGACAGGTTATAGCATTTGGA	RARb homodimer (NR concentration 270 nM)	1.23
AGAATGAAGTTACCAAAGATCAGGGAAACGCTTG	RARb homodimer (NR concentration 270 nM)	-0.995
TCGAGTAGGTTACCAATGGGGCATTCTGCTTTCT	RARb homodimer (NR concentration 270 nM)	0.45

Please state PBM binding z-score for every sequence in the list that follows.
1. GCTAGCAGGCCATTTGGGTCTCTCAATGACGGGC
2. TCTAGCAGGCCAGAGGGTCCCTCAAGAGGTACGG

1. -0.614
2. -0.677

###

Please respond with reported PBM binding z-score for every item in the list.
# Test system: RARg homodimer (NR concentration 270 nM)
# Protocol Description: PBM binding z-score (relative to random genomic background probes); higher = stronger binding; sequences stand for … in GC…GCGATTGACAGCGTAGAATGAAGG

Examples with their reported PBM binding z-score follow.
Sequence String	PBM binding z-score
GGAACGAGGGCTTTCGAGTTGATAGCATGGCGAT	-0.353
ACTACTTGGTCAGCTGAGGTCACACACAATTCGG	4.38
CCTATTAGTTGACCATAACGGCAACCGAAGCTCG	0.817
CCTACTGAGCCATTCAGAGGTCATTGATCATATG	2.95
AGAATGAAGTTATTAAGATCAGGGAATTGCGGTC	-0.0523

Attention now shifts to the item below.
Field request: PBM binding z-score | item: TCGAGTAGGTTAGGGGCAGTCAGAATGGCGTCGA
0.258
